test: Solubility in pH 6.8 buffer by nephelometry; format: physicochemical
Metric name: solubility kinetic

Some entries whose results are on file:
C[N+](C)(C)CCNC(=O)COc1ccc2nc(C3(NC(=O)C[C@H](N)Cc4cc(F)c(F)cc4F)CCS(=O)(=O)CC3)sc2c1.O=C(O)C(F)(F)F.O=C([O-])C(F)(F)F
> 50 µM
C[N+](C)(C)CCNC(=O)CCCCCOc1ccc2nc(C3(NC(=O)C[C@H](N)Cc4cc(F)c(F)cc4F)CCS(=O)(=O)CC3)sc2c1.O=C(O)C(F)(F)F.O=C([O-])C(F)(F)F
> 50 µM
N[C@@H](CC(=O)NC1(c2nc3ccc(OCC(=O)NC[C@H](O)[C@@H](O)[C@@H](O)[C@H](O)CO)cc3s2)CCS(=O)(=O)CC1)Cc1cc(F)c(F)cc1F.O=C(O)C(F)(F)F
> 50 µM
N[C@@H](CC(=O)NC1(c2nc3ccc(OCCCCCC(=O)NCCS(=O)(=O)O)cc3s2)CCS(=O)(=O)CC1)Cc1cc(F)c(F)cc1F.O=C(O)C(F)(F)F
20 to 50 µM
N[C@@H](CC(=O)NC1(c2nc3ccc(OCCCCCC(=O)NC[C@H](O)[C@@H](O)[C@@H](O)[C@H](O)CO)cc3s2)CCS(=O)(=O)CC1)Cc1cc(F)c(F)cc1F.O=C(O)C(F)(F)F
> 50 µM

Now look at this entry.
solubility kinetic for N[C@@H](CC(=O)NC1(c2nc3ccc(OCC(=O)NCCS(=O)(=O)O)cc3s2)CCS(=O)(=O)CC1)Cc1cc(F)c(F)cc1F.O=C(O)C(F)(F)F is > 50 µM
